# growth annotations
- Tested on: 786-0 renal
- Experiment: NCI-60 one-dose screen, 48 h (100 = growth as untreated, 0 = no growth, -100 = all killed)
- Condition Parameters: 10 µM unless noted
About 83,000 compounds went through this panel and 20% of them were active in at least one assay; those are over-represented in the sample as a whole.

[
  {
    "Molecule": "N#Cc1c(-c2ccccc2)cc(-c2ccccc2)n(CCCCCC(=O)Nc2ccccc2N)c1=O",
    "growth [%]": 57.6
  },
  {
    "Molecule": "N#Cc1cccc(F)c1",
    "growth [%]": 101
  },
  {
    "Molecule": "CCCCCCCCn1ccc2cc(NC(=O)CN3CCN(c4nc(C)cc(Cl)n4)CC3)ccc21",
    "growth [%]": 97.7
  },
  {
    "Molecule": "CCOC(=O)Cn1c(O)c(N=Nc2ccc(S(N)(=O)=O)cc2)c2cc(Br)ccc21",
    "growth [%]": 99.2
  },
  {
    "Molecule": "Oc1c(Cl)cc(Cl)c2ccc(Cn3cc(-c4cc(C(F)(F)F)cc(C(F)(F)F)c4)nn3)nc12",
    "growth [%]": 97.3
  },
  {
    "Molecule": "CC1=C(C(=O)OC(C)C)C(c2ccc3c(c2)OCO3)NC(=S)N1 (centres undefined)",
    "growth [%]": 104
  },
  {
    "Molecule": "C=C(CNCCc1ccc(O)cc1)[C@@H]1CC[C@]2(CO)CC[C@]3(C)[C@H](CC[C@@H]4[C@@]5(C)CCC(NCCO)C(C)(C)[C@@H]5CC[C@]43C)[C@@H]12 (some centres undefined)",
    "growth [%]": -92.1
  },
  {
    "Molecule": "CN1CCN(c2ccc(NC(=O)c3nc4ccc5[nH]ncc5c4c4c3CCCC4)cc2C(F)(F)F)CC1",
    "growth [%]": 34.3
  },
  {
    "Molecule": "COc1ccc(-c2csc(NC(=O)CSc3nc(-c4ccccc4)cc(=O)[nH]3)n2)cc1",
    "growth [%]": 67.4
  },
  {
    "Molecule": "OCCNCCCOc1ccc2ncnc(Nc3ccc(Oc4cccc(C(F)(F)F)c4)c(Cl)c3)c2c1",
    "growth [%]": -4.05
  },
  {
    "Molecule": "COc1cc(-c2cc(-c3ccc(N(C)C)cc3)nc(N3CCC(O)CC3)c2C#N)cc(OC)c1OC",
    "growth [%]": -3.55
  },
  {
    "Molecule": "CN(C)c1ccc(Nc2cc(-c3cccc(OC(F)(F)F)c3)nc3ccc(N4CCCC4)cc23)cc1",
    "growth [%]": 2.11
  },
  {
    "Molecule": "C=C(C)[C@@H]1CC[C@]2(C)[C@H](CC=C3[C@@H]4[C@H](C)[C@@H](C)CC[C@]4(CO)CC[C@]32C)[C@@]1(C)CCCN",
    "growth [%]": 39.3
  },
  {
    "Molecule": "OB(O)c1cccc(-c2nc3ccc4[nH]ncc4c3c3c2CCCC3)c1",
    "growth [%]": 41.4
  },
  {
    "Molecule": "Cc1ccc(CNc2ccc(Cl)cc2NCc2ccc(C)c(O)c2)cc1O",
    "growth [%]": 23
  },
  {
    "Molecule": "Cc1cc2c(O)c(-c3cc(Cl)ccc3Cl)c3sc(=O)oc3c2cc1C",
    "growth [%]": 83.8
  },
  {
    "Molecule": "COc1ccc2nc3ccc(OC)cc3c(SCCCN)c2c1",
    "growth [%]": 49
  },
  {
    "Molecule": "COc1ccc2c(c1)c(-c1noc(C(=O)c3cn(C)c4ccc(Br)cc34)n1)cn2C",
    "growth [%]": 112
  },
  {
    "Molecule": "CCCCCCC1(C)NCCO1 (centres undefined)",
    "growth [%]": 102
  }
]

====

- Tested on: UACC-62 melanoma
- Experiment: NCI-60 one-dose screen, 48 h (100 = growth as untreated, 0 = no growth, -100 = all killed)
- Condition Parameters: 10 µM unless noted
The panel holds about 83,000 compounds, 20% with a hit somewhere; the sample as a whole holds those more often.
# label = true (1) if growth >= 80% else false (0)

[
  {
    "Compound": "Cc1ccc(-c2nc(N3CCNCC3)c3oc(-c4ccccc4)nc3n2)cc1",
    "Class Assignment": "true (1)"
  },
  {
    "Compound": "COc1cccc([C@H]2c3[nH]c4ccccc4c3C[C@H]3C(=O)N(CCCCCCC(=O)NO)CC(=O)N23)c1",
    "Class Assignment": "false (0)"
  },
  {
    "Compound": "COc1ccc(/C=N/C2=C(C#N)C(c3cccc(Cl)c3)c3c(ccc4ccccc34)O2)cc1 (centres undefined)",
    "Class Assignment": "false (0)"
  },
  {
    "Compound": "COc1cc(CNC(=O)CCCC/C=C/C(C)C)ccc1OCc1nnc(Nc2ccc([N+](=O)[O-])cc2)o1",
    "Class Assignment": "false (0)"
  },
  {
    "Compound": "CCCCCCCCn1ccc2cc(NC(=O)CN3CCN(c4nc(C)cc(Cl)n4)CC3)ccc21",
    "Class Assignment": "false (0)"
  },
  {
    "Compound": "N#C/C(=C/c1ccc([N+](=O)[O-])cc1)n1nnc2cc(F)c(F)cc21",
    "Class Assignment": "false (0)"
  },
  {
    "Compound": "Cn1c(=O)c2c(nc(NC3=NS(=O)(=O)c4ccccc43)n2CC(=O)N2CCc3ccccc32)n(C)c1=O",
    "Class Assignment": "true (1)"
  },
  {
    "Compound": "N=C(N)c1ccc(-c2ccc(-c3cc(Cl)cc(Cl)c3)o2)o1",
    "Class Assignment": "false (0)"
  },
  {
    "Compound": "CC1=C(Nc2ccc(N3CCN(C)CC3)cc2)C(=O)c2cncnc2C1=O",
    "Class Assignment": "true (1)"
  },
  {
    "Compound": "Cc1ccc(-c2cc(-c3ccc(Cl)cc3)nc(NC(=O)c3cccnc3)n2)cc1",
    "Class Assignment": "false (0)"
  },
  {
    "Compound": "O=C(Cn1c2c(c3ccccc31)CCCC2)Nc1ccc(-c2nc3ccccc3s2)cc1",
    "Class Assignment": "true (1)"
  },
  {
    "Compound": "O=c1oc2c(cnc3ccccc32)cc1-c1ccsc1",
    "Class Assignment": "true (1)"
  },
  {
    "Compound": "Brc1c2c(c(Br)c3ccccc13)CCCC2",
    "Class Assignment": "true (1)"
  },
  {
    "Compound": "COc1ccccc1Nc1nc2c(s1)C1=CC[C@H]3[C@@H]4CC[C@H]([C@H](C)CCCC(C)C)[C@@]4(C)CC[C@@H]3[C@@]1(C)CC2",
    "Class Assignment": "true (1)"
  },
  {
    "Compound": "CCN(C(=O)N1CCN(c2cc3c(cc2F)c(=O)c(C(=O)O)cn3C2CC2)CC1)c1nc(-c2ccc(Cl)cc2)cs1",
    "Class Assignment": "false (0)"
  },
  {
    "Compound": "O=C(Nc1ccc(NC(=O)c2cc(=O)[nH]c3ccccc23)cc1)Nc1cccc(C(F)(F)F)c1",
    "Class Assignment": "false (0)"
  },
  {
    "Compound": "Cc1nnc(NC(=O)c2nc(S(=O)(=O)Cc3ccc(F)cc3)ncc2Cl)s1",
    "Class Assignment": "false (0)"
  }
]

====

The compounds listed here are annotated with their growth.
- Tested on: SK-MEL-28 melanoma
- Experiment: NCI-60 one-dose screen, 48 h (100 = growth as untreated, 0 = no growth, -100 = all killed)
- Condition Parameters: 10 µM unless noted
About 83,000 compounds went through this panel and 20% of them were active in at least one assay; those are over-represented in the sample as a whole. Calls of active or inactive are those of the source. How the source made its calls: active means growth percent below 10; inactive means the rest.

[
  {
    "Compound": "CN(C)CCNC(=O)c1cccc(-c2cnc3ccc(-c4ccc5c(c4)OCO5)nn23)c1",
    "growth": "99.5% (inactive)"
  },
  {
    "Compound": "CN1CCN(C(=O)c2ccc(NC(=O)Nc3ccc(-c4nc(N5CCOCC5)c5cccn5n4)cc3)cc2)CC1",
    "growth": "-18.4% (active)"
  },
  {
    "Compound": "CCNc1cc(-c2cccc(OC(F)(F)F)c2)nc2ccc(N3CCCC3)cc12",
    "growth": "30.6% (inactive)"
  },
  {
    "Compound": "Oc1c(Cl)cc(Cl)c2ccc(Cn3cc(-c4cc(F)cc(F)c4)nn3)nc12",
    "growth": "61.4% (inactive)"
  },
  {
    "Compound": "CCCCNc1ccc(C#N)c(OCCN(CC)CC)c1",
    "growth": "101% (inactive)"
  },
  {
    "Compound": "COc1ccc(-c2nnc3n(C)c(=O)c4ccccc4n23)cc1N",
    "growth": "53.6% (inactive)"
  },
  {
    "Compound": "CNC(=O)c1cc(Oc2ccc3nc(NC(C)=O)sc3c2)ccn1",
    "growth": "105% (inactive)"
  },
  {
    "Compound": "CC(C)(C)n1cc(-c2ccnc(NCCNS(=O)(=O)c3cccc(F)c3)c2)c(-c2ccccc2)n1",
    "growth": "102% (inactive)"
  },
  {
    "Compound": "Cc1ccc(-c2nc(/C=C3/C(=O)Nc4ccccc43)c3ccccn23)cc1",
    "growth": "133% (inactive)"
  },
  {
    "Compound": "CC(=O)Nc1nc2ccc(NS(=O)(=O)c3cccc4c(N(C)C)cccc34)cc2[nH]1",
    "growth": "57.9% (inactive)"
  },
  {
    "Compound": "Brc1ccc(-n2cc(-c3nn[nH]n3)c(-c3cccs3)n2)cc1",
    "growth": "103% (inactive)"
  },
  {
    "Compound": "COc1ccc(-c2csc(N(C(=O)N3CCN(c4cc5c(cc4F)c(=O)c(C(=O)O)cn5C4CC4)CC3)c3ccccc3)n2)cc1",
    "growth": "36.3% (inactive)"
  },
  {
    "Compound": "Clc1ccc(Sc2cnc(-c3ccccc3)o2)cc1",
    "growth": "102% (inactive)"
  },
  {
    "Compound": "COc1ccc(/C=N/C2=C(C#N)C(c3cccc(Cl)c3)c3c(ccc4ccccc34)O2)cc1 (stereo unspecified)",
    "growth": "70.1% (inactive)"
  },
  {
    "Compound": "CCOC(=O)c1c(NC(=O)c2ccc(C(C)C)cc2)sc2c(CN(C)C)c(O)ccc12",
    "growth": "-14.9% (active)"
  },
  {
    "Compound": "Cn1c(=O)c2[nH]c(N/N=C/c3ccccc3Br)nc2n(C)c1=O",
    "growth": "107% (inactive)"
  },
  {
    "Compound": "CNc1nc(S(=O)c2ccc(C#N)cc2)nc2ccccc12 (stereo unspecified)",
    "growth": "94.4% (inactive)"
  },
  {
    "Compound": "CCNc1nc(-c2ccc(Cl)c(OC)c2)c(-c2ccnc(NCCCNS(=O)(=O)c3ccc(Cl)cc3)n2)s1",
    "growth": "38.9% (inactive)"
  },
  {
    "Compound": "C1=CN2CC(c3ccccc3)=NNC2c2ccccc21 (stereo unspecified)",
    "growth": "126% (inactive)"
  },
  {
    "Compound": "Cc1cc2c([nH]1)CSc1cc(S(=O)(=O)c3ccccc3)c(=O)[nH]c1-2",
    "growth": "17.9% [100 µM] (inactive)"
  },
  {
    "Compound": "CCOC(=O)c1cnc2ccccc2c1Cl",
    "growth": "103% (inactive)"
  }
]
